tested on: U2OS; experiment: Multiplex assay against U2OS; type: toxicity, cell-based; conditions: human, 24 h, 10 µM, compound concentration 10 uM, replicate 1
measured-attribute: Population Mitochondria Different-Phenotype (%)

Some molecules with recorded Population Mitochondria Different-Phenotype (%):
Cc1ccccc1C(=O)Nc1ccc(C(=O)N2CCCC(N(C)C)c3ccccc32)cc1.Cl (centres undefined) ... 14%
C[C@@H]1C[C@H]2[C@@H]3CCC4=CC(=O)C=C[C@]4(C)[C@@]3(F)[C@@H](O)C[C@]2(C)[C@@]1(O)C(=O)CO [DEXAMETHASONE] ... 0%
O=S(=O)(c1ccccc1)c1cnc2c(N3CCNCC3)cccc2c1 [INTEPIRDINE] ... 14%
CC(C)(C)c1ccc(S(=O)(=O)Nc2ccc(Cl)cc2C(=O)c2cc[n+]([O-])cc2)cc1 [VERCIRNON] ... 1%
Cc1ccc(F)cc1C(=O)Nc1ccc(C(=O)N2Cc3cccn3Cc3ccccc32)c(Cl)c1 [LIXIVAPTAN] ... 63%
COc1cc(C(=O)N(CCCc2ccccc2)Cc2ccc(CC(=O)O)cc2)cc(OC)c1C ... 2%

Field request: Population Mitochondria Different-Phenotype (%) | item: O=C(NCCO)c1cccc(-c2cc(Nc3ccc(OC(F)(F)F)cc3)ncn2)c1 3%

Field request: Population Mitochondria Different-Phenotype (%) | item: Cl.Clc1ccc2nsnc2c1NC1=NCCN1 [TIZANIDINE HYDROCHLORIDE] 1%

Field request: Population Mitochondria Different-Phenotype (%) | item: Cc1ccc(/C(=C\CN2CCCC2)c2ccccn2)cc1 [TRIPROLIDINE] 15%
